# System: Ipomoea hederacea (IPOHE)
# Assay Text: Pre-emergence herbicidal glasshouse test (Table B1)
# Type: in vivo
# Applied Conditions: applied at 125 g/ha, evaluated after 13 days
Recorded Endpoint: PRE Application IPOHE, percentage damage on five-point scale

1) CCC(=O)Nc1c(OC(F)F)ccc(C(=O)Nc2nnnn2C)c1C [Compound 1.126]: 3 (3=40-59%)
2) CCC(=O)Nc1c(OC(F)(F)F)ccc(C(=O)Nc2nnnn2C)c1C(F)(F)F [Compound 1.082]: 3 (3=40-59%)
3) CCn1nnnc1NC(=O)c1ccc(OC(F)(F)F)c(NC(=O)C(F)F)c1Cl [Compound 1.122]: 1 (1=0-19%)
4) CCC(=O)Nc1c(OC(F)(F)F)ccc(C(=O)Nc2nnnn2CC)c1C [Compound 1.079]: 4 (4=60-79%)
5) CCn1nnnc1NC(=O)c1ccc(OC(F)(F)F)c(NC(=O)C2(C)CC2)c1Cl [Compound 1.075]: 5 (5=80-100%)
6) Cc1cc(C(=O)Nc2c(OC(F)(F)F)ccc(C(=O)Nc3nnnn3C)c2Cl)nn1C [Compound 1.046]: 5 (5=80-100%)
7) COCCCC(=O)Nc1c(OC(F)(F)F)ccc(C(=O)Nc2nnnn2C)c1Cl [Compound 1.058]: 5 (5=80-100%)
8) CCC(=O)Nc1c(OC(F)F)ccc(C(=O)Nc2nnnn2C)c1C(F)(F)F [Compound 1.096]: 3 (3=40-59%)
9) CCC(=O)Nc1c(OC(F)(F)F)ccc(C(=O)Nc2nnnn2C)c1Cl [Compound 1.007]: 5 (5=80-100%)
10) Cn1nnnc1NC(=O)c1ccc(OC(F)F)c(NC(=O)c2cc(Cl)sc2Cl)c1Cl [Compound 1.041]: 2 (2=20-39%)
11) Cn1nnnc1NC(=O)c1ccc(OC(F)F)c(NC(=O)CC2CC2)c1Cl [Compound 1.036]: 4 (4=60-79%)
12) CCC(=O)N(CC)c1c(OC(F)F)ccc(C(=O)Nc2nnnn2C)c1Cl [Compound 1.021]: 3 (3=40-59%)
13) Cc1nc(C)c(C(=O)Nc2c(OC(F)F)ccc(C(=O)Nc3nnnn3C)c2Cl)s1 [Compound 1.042]: 5 (5=80-100%)
14) CC(=O)Nc1c(OC(F)F)ccc(C(=O)Nc2nnnn2C)c1Cl [Compound 1.090]: 4 (4=60-79%)
15) CCOCC(=O)Nc1c(OC(F)(F)F)ccc(C(=O)Nc2nnnn2C)c1Cl [Compound 1.066]: 5 (5=80-100%)
16) Cn1nnnc1NC(=O)c1ccc(OC(F)F)c(NC(=O)C2CC2)c1Cl [Compound 1.019]: 5 (5=80-100%)
17) CCn1nnnc1NC(=O)c1ccc(OC(F)(F)F)c(NC(=O)C(C)OC)c1Cl (stereo not shown) [Compound 1.071]: 5 (5=80-100%)
18) Cn1nnnc1NC(=O)c1ccc(OC(F)F)c(NC(=O)c2ncc(C(F)(F)F)cc2Cl)c1Cl [Compound 1.081]: 1 (1=0-19%)
19) CN(C(=O)CC1CC1)c1c(OC(F)F)ccc(C(=O)Nc2nnnn2C)c1Cl [Compound 1.037]: 4 (4=60-79%)
20) Cc1nc(C(=O)Nc2c(OC(F)F)ccc(C(=O)Nc3nnnn3C)c2Cl)cs1 [Compound 1.038]: 5 (5=80-100%)
21) Cn1nnnc1NC(=O)c1ccc(OC(F)F)c(NC(=O)c2ncc(F)cc2F)c1Cl [Compound 1.089]: 3 (3=40-59%)
22) CCC(=O)N(CC)c1c(OC(F)F)ccc(C(=O)Nc2nnnn2CC)c1Cl [Compound 1.095]: 4 (4=60-79%)
23) Cn1nnnc1NC(=O)c1ccc(OC(F)F)c(N2CCCCC2=O)c1Cl [Compound 1.023]: 2 (2=20-39%)
24) CCn1nnnc1NC(=O)c1ccc(OC(F)(F)F)c(NC(=O)C(C)(F)F)c1Cl [Compound 1.060]: 3 (3=40-59%)
25) Cn1nnnc1NC(=O)c1ccc(OC(F)F)c(NC(=O)c2ncccc2F)c1Cl [Compound 1.100]: 2 (2=20-39%)
26) CCC(COC)C(=O)Nc1c(OC(F)(F)F)ccc(C(=O)Nc2nnnn2CC)c1Cl (stereo not shown) [Compound 1.069]: 4 (4=60-79%)
27) Cn1nnnc1NC(=O)c1ccc(OC(F)F)c(NC(=O)c2ccc(F)cc2)c1Cl [Compound 1.099]: 3 (3=40-59%)
28) CC(C)OCC(=O)Nc1c(OC(F)(F)F)ccc(C(=O)Nc2nnnn2C)c1Cl [Compound 1.064]: 4 (4=60-79%)
